Source: ChEMBL document CHEMBL1201862

- Tested on: NCI/ADR-RES
- experiment_description: NCI tumour cell line growth inhibition, 48 h
Calls of active or inactive are those of the source. Rule as the data show it: active = GI50 up to about 1.1 µM and inactive = higher. Starred links: 1 amine or outer side, 2 acyl side, 3 side chain; linkers in the order of their positions; H or OH if unused. Positions of bridges follow the written chain, without caps; N, C: chain ends. Non-standard residues stand in square brackets, D forms with d. Residues, ends and D or L forms follow the SMILES beside them. ξ: configuration not given here. *: point of attachment. γ4hArg(2R,3R-(OH)2) = N=C(N)NCCC[C@H](N[*:1])[C@@H](O)[C@@H](O)C(=O)[*:2]; Gln(3S,4R-Me2) = C[C@H]([C@H](N)C(=O)O)[C@@H](C)C(N)=O; X50 = CC(C)C[C@H](C)[C@@H](O)[C@@H](C)C(=O)*; X51 = COC(c1ccc(O)cc1)C(N[*:1])C(=O)[*:2]; NMeQ = CN[C@@H](CCC(N)=O)C(=O)O; Thr(3ξ) = CC(O)[C@H](N)C(=O)O; NMeA = CN[C@@H](C)C(=O)O
Assign a class; possible classes are true (1) = active, false (0) = inactive

Query block: Could you kindly confirm the outcome this assay logged for `c1ccc(CN2CCC3(CC2)SSC2(CCN(Cc4ccccc4)CC2)SS3)cc1` ?
Result block: false (0)

Query block: Could you kindly confirm the outcome this assay logged for `CC(C)(C)c1cc(/C=C(\C#N)C(=O)NCCO)cc(C(C)(C)C)c1O` ?
Result block: false (0)

Query block: Could you kindly confirm the outcome this assay logged for `NS(=O)(=O)c1ccc(NC(=S)NC(=O)Nc2ccc(Cl)c(Cl)c2)cc1` ?
Result block: false (0)

Query block: Could you kindly confirm the outcome this assay logged for `C=CC(C)(C)c1cc([C@@H]2COc3cc(O)ccc3C2=O)c(O)c(OC)c1OC` ?
Result block: false (0)

Query block: Could you kindly confirm the outcome this assay logged for COC(c1ccc(O)cc1)C1NC(=O)[C@H](CCC(N)=O)N(C)C(=O)[C@H](CC(C)C)NC(=O)[C@@H](CCCN=C(N)N)NC(=O)[C@H](C(C)O)NC(=O)[C@@H](NC(=O)[C@@H](NC(=O)[C@H](O)[C@H](O)[C@H](CCCN=C(N)N)NC(=O)[C@H](C)NC(=O)[C@H](C)[C@H](O)[C@@H](C)CC(C)C)[C@@H](C)[C@@H](C)C(N)=O)[C@@H](C)OC(=O)[C@H](C)N(C)C1=O (stereo partly drawn) (X50-A[γ4hArg(2R,3R-(OH)2)][Gln(3S,4R-Me2)]T[Thr(3ξ)][dR]L[NMeQ][X51][NMeA]; ester 4-C) ?
Result block: true (1)

Query block: Could you kindly confirm the outcome this assay logged for `CC(C)(C)OC(=O)N(O)[C@@H]1C=C[C@H](n2cnc3c(N)ncnc32)C1` ?
Result block: false (0)

Query block: Could you kindly confirm the outcome this assay logged for `Oc1c(Cl)ccc2cccnc12` ?
Result block: true (1)
